Values from patent US20220356229A1

Parameter: median fluorescence intensity, fold over isotype control. Scope: all listed entries.
TARGET_SYSTEM: SARS-CoV-2 full length Spike protein, wild type, expressed on CHO cells (SARS-CoV-2, UniProt P0DTC2 14-1273)
PROPERTY: median fluorescence intensity, fold over isotype control (fold over isotype)

BINDER | OBSERVED_VALUE
anti-SARS-CoV-2 antibody 1135 (antibody, V domains shown) VH: EVQLVESGGGLVQPGRSLRLSCAASGLTFEDYAMHWVRQVPGKGLEWVSGISWNSGTIGYADSVKGRFIISRDNAKNSLYLQMRSLRAEDTALYYCAKDVGFGELLYYAFDIWGQGTMVTVSS VL: QSALTQPASVSGSPGQSITISCTGTSSDVGGYNYVSWYQQHPGKAPKLMIYDVSNRPSGVSNRFSGSKSGNTASLTISGLQAEDEADYYCSSYTSSSTVVFGGGTKLTVLG | 10.9
anti-SARS-CoV-2 antibody 1015 (antibody, V domains shown) VH: EVQLVESGGGLVQPGGSLRLSCAASGFTFSSYWMHWVRQAPGKGLVWVSHINSDGSSTSYADSVKGRFTISRDNAKNTLYLQMNSLRAEDTAVYYCARGLRYFDLDVWGQGTTVTVSS VL: QSVLTQPPSVSEAPRQRVTISCSGSSSNIGNNAVNWYQQLPGKAPKLLIFYDDLLPSGVSDRFSGSKSGTSASLAISGLQSEDEADYYCAAWDDSLNGGVFGGGTKLTVLG | 30.5
anti-SARS-CoV-2 antibody 1036 (antibody, V domains shown) VH: QVQLVQSGAEVKKPGSSVKVSCKASGGTLSSYTISWVRQAPGQGLEWMGRIIPILGIADYAQKFQGRVTITADKSTTTAYMDLSSLGSEDTALYYCASAPKDWSSGFDYYYGMDVWGQGTMVTVSS VL: DIVMTQTPLSLSVTPGQPASISCKSSQSLLNSDGKTYLYWYLQKAGQPPQLLIYEVSNRFSGVPERFSGSGSGTDFTLKISRVEAEDVGVYYCMQSVQLPPYTFGQGTKLEITR | 10.2
